# Test system: CAKI-1 renal
# Assay Details: NCI tumour cell line growth inhibition, 48 h
Each entry gets FALSE if its TGI stays under 30 µM, and TRUE if its TGI is 30 µM or above.

Please review the following examples before continuing.
Evaluate CC1C(=O)CC(c2cccs2)N(N=O)C1c1cccs1 (configuration not stated) : TGI at minimum 30 µM?
TRUE

Hi, just wondering whether C=C1C[C@@H]2O[C@H]3[C@H]4[C@@H](C[C@@H](C)[C@@H](OC(C)=O)[C@H]42)[C@@H](C)CO[C@@]3(C)[C@H](OC(=O)CCCCCCC)C[C@H]1O shows TGI of 30 µM or higher.
FALSE

Check if TGI >= 30 µM (inclusive). Item: COc1cc(/C=N/c2nc3cc4sc(/N=C/c5cc(OC)c(OC)c(OC)c5)nc4cc3s2)cc(OC)c1OC
TRUE

TGI >= 30 µM for CC(NCc1c(O)ccc2ccc(=O)oc12)C(=O)O (configuration not stated) ?
TRUE

Hi team, for O=C1Cc2nc(CO)c(CO)c(CO)c2CO1 , is the recorded TGI at or above 30 µM?
TRUE

***
For this compound, is measured TGI 30 µM or higher? CC1(C)N=C(N)N=C(N)N1c1ccc(Cl)cc1
TRUE

###

Could you please report measured TGI for the items listed next?
# Test system: MALME-3M melanoma
# Assay Details: NCI tumour cell line growth inhibition, 48 h

# get_value(readout='TGI', item= O=c1oc2ccccc2c(O)c1C(c1cnc2ccccc2c1)c1c(O)c2ccccc2oc1=O )
> 100 µM

# input compound: Cn1c(=O)c2nc3c(=O)n(C)c(=O)n(CC(N)=O)c3nc2n(C)c1=O ; wanted: its TGI
> 100 µM

Now consider a different compound.
Given O=C(O)c1ccccc1CC1Cc2cc3c(cc2C1)CCC3 , state its recorded TGI.
> 100 µM

###

# Tested on: BT-549 breast
# Assay Details: NCI tumour cell line growth inhibition, 48 h
Attribute Measured: TGI

# TGI lookup, item O=C(O)c1cc(=O)cc(C(=O)O)o1
> 100 µM

Form field: reported TGI of CCCCCCCCCCCCCCCCCCNc1ccn(C2OC(CO)C(OP(=O)(O)OCC(O)COP(=O)(O)OCC3OC(n4cc(F)c(NCCCCCCCCCCCCCCCCCC)nc4=O)CC3O)C2O)c(=O)n1 (stereo unspecified)
> 50 µM

For each of the compounds below, state TGI.
1. CC12CCC(=O)N1c1cncnc1N2 (stereo unspecified)
2. CCOC(=O)CCC(C(=O)OCC)n1nc2ccc(Nc3c(C)[n+]([O-])c4cc(F)c(OCC)cc4[n+]3[O-])cc2n1 (stereo unspecified)
3. O=C(O)c1ccccc1CC1Cc2cc3c(cc2C1)CCC3
4. O=C1OC(C2Cc3ccc4c(c3C2=O)CCC4)c2ccccc21 (stereo unspecified)

1. > 10 µM
2. > 100 µM
3. > 100 µM
4. > 100 µM

###

# Tested on: U251 CNS
# Assay Details: NCI tumour cell line growth inhibition, 48 h
Attribute Measured: log10(TGI) (log10 of the value in µM)
Reminder: these figures are log10 of reported TGI, in µM before transformation.

Required: log10(TGI), one value per compound below.
1. CN(C)CCCSc1ccccc1NC1=C(Cl)C(=O)C(Nc2ccccc2SCCCN(C)C)=C(Cl)C1=O
2. C#CC(=O)Nc1cccc2c1cc(C)n2-c1nc2c(c(NCc3ccccc3)n1)CCCC2
3. O=C(c1ccc(C(F)(F)F)c(Cl)c1)N(Cc1ccc(Cl)cc1)c1ccc(-c2cc(C(F)(F)F)[nH]n2)c(O)c1
4. CC(C)(Oc1ccc(Cl)cc1)C(=O)N(C(=O)N1CCCCC1)c1ccccc1
5. C=C1C[C@@H]2O[C@H]3[C@H]4[C@@H](C[C@@H](C)[C@@H](OC(C)=O)[C@H]42)[C@@H](C)CO[C@@]3(C)[C@H](OC(=O)CCCCCCC)C[C@H]1O

1: 0.57; 2: -0.47; 3: 0.35; 4: 1.59; 5: 1.49

###

Field: TGI. Provide a value for each of the compounds that follow.
# System: UACC-257 melanoma
# Assay Details: NCI tumour cell line growth inhibition, 48 h
Answers are plain numbers, in µM.

Requested read-out: TGI. Entry: COC(=O)c1ccc(/C=C(\c2ccc([N+](=O)[O-])o2)S(=O)(=O)c2ccc(NC(C)=O)cc2)o1
4.54

Hi, could you look up TGI for each item in my list?
1. CCCCCCn1c(SC)nc(COC(=O)NC)c1COC(=O)NC
2. Cc1ccc2cccc(OC(=O)Nc3cccc(C(F)(F)F)c3)c2n1

1: 37.8; 2: 12.9

###

# Test system: UACC-62 melanoma
# Assay Details: NCI tumour cell line growth inhibition, 48 h
Please go through the items and note down their TGI.
Answers are plain numbers, in µM.

For the 2 compounds below, give their TGI values.
1. CC(=O)c1cc2c(s1)C(=O)c1sccc1C2=O
2. CC(C)[C@@](O)(c1ccc2cc(OC(F)F)c(OC(F)F)cc2c1)c1cn[nH]n1

[0.0898, 31]

###

Field: TGI. Provide a value for each of the molecules that follow.
# Test system: T-47D breast
# Assay Details: NCI tumour cell line growth inhibition, 48 h
One number for each entry, in µM.

Could you tell me which TGI is on file for Clc1cc(Cl)c(OCCCCCCN2CCNCC2)c(Cl)c1 ?
5.06

Quick one: TGI of Cc1ccc2cccc(OC(=O)Nc3cccc(C(F)(F)F)c3)c2n1 ?
13.4

Need TGI, item COc1ccc(NC2=C(I)C(=O)c3ncccc3C2=O)cc1
4.17

Using the record for N#CC(C#N)=C/C=C/c1c(Cl)cccc1Cl , report its TGI.
6.19

Look up TGI for this molecule: Clc1cc(Cl)c2cc3cccc[n+]3cc2c1Cl
23.9

Name the reported TGI value associated with the molecule O=Nc1c(-c2c(O)[nH]c3cc(Br)ccc23)[nH]c2ccccc12
5.48

Hi, could you look up TGI for each item in my list?
1. CN(C)Cc1cc(C(=O)/C=C/c2ccc(Cl)c(Cl)c2)cc(CN(C)C)c1O
2. O=C(Oc1c(Cl)cc(C2(c3cc(Cl)c(OC(=O)c4ccccc4)c(Cl)c3)CCCCC2)cc1Cl)c1ccccc1

19.9
37.2

###

# Test system: NCI-H460 lung
# Assay Details: NCI tumour cell line growth inhibition, 48 h
Attribute Measured: TGI

Examples from the recorded data:
Need TGI, item CCOC(=O)c1ccc(C(=O)n2ccnc2)[nH]1
> 100 µM

Entry CCOC(=O)CCC(C(=O)OCC)n1nc2ccc(Nc3c(C)[n+]([O-])c4cc(F)c(OCC)cc4[n+]3[O-])cc2n1 (stereo not drawn) : reported TGI = ?
> 100 µM

Switching to the query record.
Query (molecule): CSc1nc2nn(Cc3ccccc3)cc2c(=O)[nH]1 ; field requested: TGI
> 100 µM

###

Give measured TGI for each item. Keep answers brief.
# Test system: SF-539 CNS
# Assay Details: NCI tumour cell line growth inhibition, 48 h

I'd like to know its TGI. The compound in question is CSc1nc(CO)c(CO)n1C
> 100 µM

Which TGI is listed for Cc1c(/C=N/NC(=S)Nc2ccc(Cl)cc2)c(=O)n(-c2ccccc2)n1C ?
28.2 µM

Entry under review: CCOC(=O)C(NC(C)=O)(Nc1ccc(S(N)(=O)=O)cc1)C(F)(F)F (stereo not given) . Reported TGI?
> 100 µM

State recorded TGI for all listed compounds.
1. CCCCCCCCCCCCCC1=C(O)C(=O)C(CC2=C(O)C(=O)C(CCCCCCCCCCCCC)=C(O)C2=O)=C(O)C1=O
2. CCOC(=O)Cc1nnc2n(-c3ccccc3)c(=O)c3ccccc3n12
3. O=S1(=O)c2ccccc2C(Nc2ccccc2)N1c1ccccc1 (stereo not given)
4. CC(NCc1c(O)ccc2ccc(=O)oc12)C(=O)O (stereo not given)
5. CCC/C(Cl)=N/OC(=O)Nc1cc(C(F)(F)F)ccc1OC
6. Cc1ccc(Cc2nn(C)c(=O)n2N)cc1

1: > 100 µM; 2: > 100 µM; 3: > 100 µM; 4: > 100 µM; 5: 28.6 µM; 6: > 100 µM

State recorded TGI for all listed compounds.
1. Cn1cc(-c2nc(-c3c[nH]c4ncccc34)cs2)c2ccccc21
2. O=C(c1ccc(C(F)(F)F)c(Cl)c1)N(Cc1ccc(Cl)cc1)c1ccc(-c2cc(C(F)(F)F)[nH]n2)c(O)c1
3. CN(CC(=O)O)Cc1c(O)c(Cl)cc(Cl)c1Cl
4. CC(C)(C)C(=O)Nc1cccc2oc(-c3ccccc3)cc12
5. O=C1c2cccnc2C(=O)c2c1c(C(=O)OCCN1CCCCC1)c1ccccn21
6. COC(=O)c1ncc2c(=O)[nH]c3ccccc3c2c1C(=O)OC

1. > 100 µM
2. 2.09 µM
3. > 100 µM
4. > 100 µM
5. 0.155 µM
6. > 100 µM

Reference source: PubChem BioAssay (NCI)
